# STUDY TARGET: UniProtKB Q13324
# Sequence (Q13324 whole entry): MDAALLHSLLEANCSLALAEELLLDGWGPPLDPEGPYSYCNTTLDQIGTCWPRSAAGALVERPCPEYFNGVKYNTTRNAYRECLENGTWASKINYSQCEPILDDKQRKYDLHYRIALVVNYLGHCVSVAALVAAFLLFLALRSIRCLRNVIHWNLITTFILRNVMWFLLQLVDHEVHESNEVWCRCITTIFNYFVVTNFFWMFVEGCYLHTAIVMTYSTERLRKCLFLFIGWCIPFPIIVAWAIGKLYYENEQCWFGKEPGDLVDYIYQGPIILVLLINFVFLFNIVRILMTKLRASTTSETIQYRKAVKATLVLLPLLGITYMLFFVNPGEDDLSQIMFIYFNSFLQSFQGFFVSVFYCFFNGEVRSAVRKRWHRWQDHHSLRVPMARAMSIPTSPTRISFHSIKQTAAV
# PROTOCOL SUMMARY: cAMP functional assay for human CRHR2 (LANCE Ultra cAMP, TR-FRET)
# MEASUREMENT SETUP: CHO-K1 cells expressing human CRHR2-alpha, agonist human urocortin2 at EC80, cAMP; read-out: IC50 against CRHR2
pIC50: −log10 of the molar value.
Give measured pIC50 for each item. Keep answers brief.

# count of solved cases: 5
[[record]]
structure_string = "O=C(N[C@H]1CC[C@H](Cn2c(=O)n(-c3ccc(OCCO)nc3)c3ccccc32)CC1)c1cc(Cl)cnc1C(F)F"
assay_readout = "pIC50"
result = "> 6.52"

[[record]]
structure_string = "COc1ccc(C#N)c(-n2c(=O)n(C[C@H]3CC[C@H](NC(=O)c4cc(Cl)cnc4C(F)(F)F)CC3)c3ccccc32)c1"
assay_readout = "pIC50"
result = "> 6.52"

[[record]]
structure_string = "Cc1ncc(Cl)cc1C(=O)N[C@H]1CC[C@H](Cn2c(=O)n(-c3ccc(C(=O)Nc4ccncc4)nc3)c3ccccc32)CC1"
assay_readout = "pIC50"
result = "> 6.52"

[[record]]
structure_string = "Cc1ncc(Cl)cc1C(=O)N[C@H]1CC[C@H](Cn2c(=O)n(-c3ccc4c(c3)oc(=O)n4C)c3ccccc32)CC1"
assay_readout = "pIC50"
result = "> 6.52"

[[record]]
structure_string = "Cc1ncc(Cl)cc1C(=O)N[C@H]1CC[C@H](Cn2c(=O)n(-c3ccc4c(C(=O)N(C)C)noc4c3)c3ccccc32)CC1"
assay_readout = "pIC50"
result = "> 6.52"


Ask | Could you share what pIC50 was measured for `Cc1ncc(Cl)cc1C(=O)N[C@H]1CC[C@H](Cn2c(=O)n(-c3cc(N(C)C)ccc3C#N)c3ccccc32)CC1` , tested on UniProtKB Q13324?
Reply | > 6.52
